These data points were gathered from patent US11427549B2.

test system: pigweed (Amaranthus retroflexus); assay: Test A postemergence, pigweed; type: in vivo; settings: Amaranthus retroflexus, post-emergence, 240 h, 31 g ai/ha, 0 to 100 scale (0 no effect, 100 complete control), read-out: Plant response rating, Pigweed
Where pest or weed control at 31 g/ha equals or exceeds 60%, the correct label is t; where it does not, the label is f.

(Q) Can O=C1OCc2cccc(Oc3ncc(Cl)cn3)c2C1CCCCC(F)(F)F (stereo not drawn) [Compound 34] be said to have pest or weed control at 31 g/ha at or above 60%?
(A) f

(Q) Then what about the compound O=C1c2cccc(Oc3ncc(Cl)cn3)c2C1CCC(F)(F)F (stereo not drawn) [Compound 24] ?
(A) f

(Q) Then OC1CC(CCCC(F)(F)F)c2c(Oc3ncc(Cl)cn3)cccc21 (stereo not drawn) [Compound 10] ?
(A) f

(Q) Likewise for FC(F)(F)CCCC1COc2cccc(Oc3ncc(Cl)cn3)c21 (stereo not drawn) [Compound 33] ?
(A) f

(Q) Now this one: O=C1COC(CCCC(F)(F)F)c2c(Oc3ncc(Cl)cn3)cccc21 (stereo not drawn) [Compound 5]
(A) f

(Q) Next entry: O=C1OC(CCC(F)(F)F)c2c(Oc3ncc(Cl)cn3)cccc21 (stereo not drawn) [Compound 4]
(A) t

(Q) Subsequent entry: O=C1O[C@H](CCC(F)(F)F)c2c(Oc3ncc(Cl)cn3)cccc21 [Compound 19]
(A) t

(Q) Record: FC(F)(F)CCC1COc2cccc(Oc3ncc(Cl)cn3)c21 (stereo not drawn) [Compound 36]
(A) f
